Biological target: T1, mouse TF ECD-His6 (mouse, UniProt P20352 29-251)
T1 construct: Expi293-derived; also called TF-His; mTF
Assay: SPR (Biacore), TF-His over coupled antibody
pKd: −log10 of the molar value.

| binder | pKd |
| --- | --- |
| 25G1 (antibody, human IgG1, V domains shown, Human IgG1; also called antibody designated 25G1) VH: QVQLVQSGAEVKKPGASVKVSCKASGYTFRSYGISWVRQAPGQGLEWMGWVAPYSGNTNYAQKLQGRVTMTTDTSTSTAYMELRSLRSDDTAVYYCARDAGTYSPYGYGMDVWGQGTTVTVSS VL: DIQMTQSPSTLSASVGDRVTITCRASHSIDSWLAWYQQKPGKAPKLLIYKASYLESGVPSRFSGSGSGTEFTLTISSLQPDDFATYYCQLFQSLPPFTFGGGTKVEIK | 8.27 |
| 43D8 (antibody, human IgG1, V domains shown, Human IgG1; also called antibody designated 43D8) VH: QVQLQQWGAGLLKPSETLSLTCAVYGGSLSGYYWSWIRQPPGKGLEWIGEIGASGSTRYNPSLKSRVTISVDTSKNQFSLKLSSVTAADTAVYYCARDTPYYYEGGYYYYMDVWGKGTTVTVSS VL: EIVLTQSPGTLSLSPGERATLSCRASQSVSSSFLAWYQQKPGQAPRLLIYGAYSRATGIPDRFSGSGSGTDFTLTISRLEPEDFAVYYCQQAGVVPYTFGGGTKVEIK | 8.62 |
| 25G9 (antibody, human IgG1, V domains shown, Human IgG1; also called antibody designated 25G9) VH: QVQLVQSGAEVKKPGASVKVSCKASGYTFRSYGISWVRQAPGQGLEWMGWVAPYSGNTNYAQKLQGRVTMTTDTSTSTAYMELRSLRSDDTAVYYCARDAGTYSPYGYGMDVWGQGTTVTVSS VL: DIQMTQSPSTLSASVGDRVTITCQASQSIDSWLAWYQQKPGKAPKLLIYSASYLESGVPSRFSGSGSGTEFTLTISSLQPDDFATYYCQRFQSLPPFTFGGGTKVEIK | 8.54 |
| 43D7 (antibody, human IgG1, V domains shown, Human IgG1; also called antibody designated 43D7) VH: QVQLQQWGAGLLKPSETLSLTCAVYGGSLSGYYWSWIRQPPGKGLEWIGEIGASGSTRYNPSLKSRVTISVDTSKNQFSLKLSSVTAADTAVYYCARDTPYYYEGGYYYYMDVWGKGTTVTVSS VL: EIVLTQSPGTLSLSPGERATLSCRASDSVDSSYLAWYQQKPGQAPRLLIYGAFSRANGIPDRFSGSGSGTDFTLTISRLEPEDFAVYYCQQAGVVPYTFGGGTKVEIK | 7.68 |

All figures here come from patent US20250361322A1.
